These measurements were taken from patent US4477443A.

Tested on: Sal. enteritidis 1891
Assay: antimicrobial activity (MIC), Table I
Type: cell-based
Conditions: Salmonella enterica; Sal. enteritidis 1891; read-out: MIC
Provide the recorded MIC for the entries that follow.
Give bare numbers, in µg/mL.

Solved cases below.
COMPOUND: CCCN(CCC)CC1C=C(C)C=CC(=O)C(C)CC(CC=O)C(OC2OC(C)C(O)C(N(C)C)C2O)C(C)C(O)CC(=O)OC1CC (centres unmarked) [Example 6]
SUBJECT OF TEST: Sal. enteritidis 1891
UNIT SYMBOL: µg/mL
MIC: 1.56
//
COMPOUND: CCC1OC(=O)CC(O)C(C)C(OC2OC(C)CC(N(C)C)C2O)C(CC=O)CC(C)C(=O)C=CC(C)=CC1CN1CCCCC1CO (centres unmarked) [Example 31]
SUBJECT OF TEST: Sal. enteritidis 1891
UNIT SYMBOL: µg/mL
MIC: 0.39
//
COMPOUND: CCC1OC(=O)CC(O)C(C)C(OC2OC(C)CC(N(C)C)C2O)C(CC=O)CC(C)C(=O)C=CC(C)=CC1CN1CCC(=O)CC1 (centres unmarked) [Example 28]
SUBJECT OF TEST: Sal. enteritidis 1891
UNIT SYMBOL: µg/mL
MIC: 6.25

Respectfully, I request MIC for each entry included below.
1. CCC1OC(=O)CC(O)C(C)C(OC2OC(C)C(O)C(N(C)C)C2O)C(CC=O)CC(C)C(=O)C=CC(C)=CC1CN(CC)CC (centres unmarked) [Example 5]
2. CCC1OC(=O)CC(O)C(C)C(OC2OC(C)CC(N(C)C)C2O)C(CC=O)CC(C)C(=O)C=CC(C)=CC1CN1CCN(C)CC1 (centres unmarked) [Example 32]
3. CCC1OC(=O)CC(O)C(C)C(OC2OC(C)CC(N(C)C)C2O)C(CC=O)CC(C)C(=O)C=CC(C)=CC1CN1CCCC1 (centres unmarked) [Example 16]
4. CCC1OC(=O)CC(O)C(C)C(OC2OC(C)CC(N(C)C)C2O)C(CC=O)CC(C)C(=O)C=CC(C)=CC1CN(CC)CC (centres unmarked) [Example 10]
5. CCC1OC(=O)CC(O)C(C)C(OC2OC(C)C(O)C(N(C)C)C2O)C(CC=O)CC(C)C(=O)C=CC(C)=CC1CN(C)Cc1ccccc1 (centres unmarked) [Example 25]
6. CCC1OC(=O)CC(O)C(C)C(OC2OC(C)CC(N(C)C)C2O)C(CC=O)CC(C)C(=O)C=CC(C)=CC1CN1CCOCC1 (centres unmarked) [Example 29]
7. CCC1OC(=O)CC(O)C(C)C(OC2OC(C)CC(N(C)C)C2O)C(CC=O)CC(C)C(=O)C=CC(C)=CC1CN(CC)C(=O)OC (centres unmarked) [Example 83]

OUT:
3.12
6.25
0.39
0.39
1.56
12.5
6.25

* * *

Would you mind telling me the reported MIC of each entry?
System: B. cereus
Assay: antimicrobial activity (MIC), Table II
Format: cell-based
Conditions: Bacillus cereus; B. cereus; read-out: MIC
Numbers only, in µg/mL.

COMPOUND: CCC1OC(=O)CC(O)C(C)C(OC2OC(C)CC(N(C)C)C2O)C(CC=O)CC(C)C(=O)C=CC(C)=CC1CN(CC)C(=O)c1ccco1 (stereo not drawn) [Example 45]
MIC (µg/mL): 0.39

Now look at this entry.
IN: Query for B. cereus: what MIC does the record show for CCC1OC(=O)CC(O)C(C)C(OC2OC(C)C(O)C(N(C)C)C2O)C(CC=O)CC(C)C(=O)C=CC(C)=CC1CN(CC)C(=O)c1ccco1 (stereo not drawn) [Example 43] ?
OUT: 0.39
